Hey, just so you know, these numbers are from patent US20150064204A1.

- assayed system: T1, human GITR (Glucocorticoid-induced TNFR-related gene, TNFRSF18) (human, UniProt Q9Y5U5 26-241)
- T1 sequence: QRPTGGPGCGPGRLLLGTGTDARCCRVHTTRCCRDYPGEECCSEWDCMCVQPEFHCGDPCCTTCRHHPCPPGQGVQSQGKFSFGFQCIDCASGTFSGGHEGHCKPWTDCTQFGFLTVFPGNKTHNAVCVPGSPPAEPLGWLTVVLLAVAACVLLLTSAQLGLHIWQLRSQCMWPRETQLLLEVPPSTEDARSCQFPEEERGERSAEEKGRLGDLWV
- protocol description: cell-based or functional assay
measured attribute: IFNg Secretion EC50 (ng/mL)

binder: 33F6 (antibody, human IgG1, kappa, V domains shown, Fully human parental antibody; also called Ab3; SS-12414) VH: QVQLVESGGGVVQPGRSLRLSCAASGFTFSNYGMHWVRQAPGKGLEWVAVIWYVGSNKYYADSVKGRFTISRDNSKNTLYLQMNSLRAEDTAVYYCARGGELRLYYYYGMDVWGQGTTVTVSS VL: DIQMTQSPSSLSASVGDRVTITCRASQGIRNDLGWYQQKPGKAPKRLIYAASSLQSGVPSRFSGSGSGTEFTLTVSSLQPEDFATYYCLQLNSYPWTFGQGTKVEIKR
unit text: ng/mL
result: 0.4

binder: 41E11 (antibody, human IgG1, kappa, V domains shown, Fully human parental antibody; also called Ab6; SS-12417) VH: QVQVVESGGGVVQPGRSLRLSCAASGFTFSSYGMYWVRQAPGKGLEWVAVIWYEGSNKYYADSVRGRFTISRDNSKNTLYLQMNSLRAEDTALYYCARGGQLGKDYYSGMDVWGQGTTVTVSS VL: DIQMTQSPSSLSASVGDRVTITCRASQVIRNDLGWYQQKPGKAPKRLIYAASSLQSGVPSRFSGSGSGTEFTLTISSLQPEDFATYYCLQHNSYPLTFGGGTKVEIKR
unit text: ng/mL
result: 0.3

binder: 48H12 (antibody, human IgG1, kappa, V domains shown, Fully human parental antibody; also called Ab12; SS-12422) VH: QVQLVESGGGVVQPGRSLRLSCAASGFTFSSYGMHWVRQAPGKGLEWVAVIWYAGSNKYYADSVKGRFTISRDNSKNTVYLQMNSLRAEDTAVYYCARGGQLALYYYYGMDVWGQGTTVTVSS VL: DIQMTQSPSSLSASVGDRVTITCRASQGIRNDLGWYQQKPGKAPKRLIYAASSLQSGVPSRFSGSGSGTEFTLTISSLQPEDFATYYCLQHNNYPWTFGQGTKVEIKR
unit text: ng/mL
result: 0.8
